Values compiled from paper PMC9170038.

target: MS2 coat protein, dlFG mutant (Escherichia phage MS2, UniProt P03612, del68-81insG); experiment: 4 mM Mg2+; no ligand; RNA-MaP array; 100 mM Tris-HCl pH 7.5, 80 mM KCl, 4 mM MgCl2, 0.1 mg/mL BSA, 1 mM DTT, 0.01 mg/mL yeast tRNA, 0.01% Tween-20; protein 1.5 nM to 3 uM; 37 C (Table S3); details: chain copies: 2; label: tethered by stalled RNA polymerase
Provide the recorded Kd for the entries that follow.

Param item = Eterna 12594 (Exclusion 3) (ssRNA) RNA: AACGAUCUAGGAUAUACAUGAGGAUCACCCAUGUAAGAGCCCAAACCAGGCUCCCUCUGUAGAAGGAGGUCAAA ; retrieve measured Kd. 44.9 nM

Note, next up: Eterna 7730540 (Same State - FMN A) (ssRNA) RNA: AGCGAGUGAUGUUCGCUGAUCAUGUGAAGUUAGGAUAUAUACUUGCAUAGAAGGAACUAUUACAUGACAUUAGAGGCAGUAGUUC > 3000 nM

Note, next up: Eterna 7673438 (Same State - Arginine B) (ssRNA) RNA: UGUAUGGACUGAAGGAGCGGGUUGAUAUCAUGAGGAUCACCCAUGGAAAAGGCGAAAGCCGCCCAGGUAGGUCGCAGUCCAUACU 20 nM

Note, next up: Eterna 7705565 (Exclusion - FMN A) (ssRNA) RNA: AGACUACCACACUGUCAAUAGACAGUGAACUAGGAUAUGCUGAUAAGCAGAAGGAGUGAUGUUCCUAAAGGUAGUCAAAUAUAAU > 3000 nM

Note, next up: Eterna 6063240 (Exclusion 4) (ssRNA) RNA: GUUUCGUCAGGAUAUGUGGCUUCGAUCGUGCGAAGAAGGCUACAGAAGGCACAUGAGGAUCACCCAUGUUCGUC 34.2 nM

Note, next up: Eterna 7695377 (Same State - Theophylline A) (ssRNA) RNA: UCUUAACUAAAAUAAUGGGAUACCAGUGAUACCAGCCAUAUGCAGGGCCCUUGGCAGCACCCUUGGCAGCCUCGAGUGAUGUUCG > 3000 nM

Note, next up: Eterna 6428636 (Exclusion NG 3) (ssRNA) RNA: AGGUAUCCUGAGAAAUUUCUCCACAUGAGGAUCACCCAUGUAGAGGAUAUCGACGCUGUGCGGUUCGAGAAGGCUACACUAAAA 5.95 nM
